- System: CD2F1 mice, L1210 leukemia ip, survival T/C
- experimental.details: NCI In Vivo Anticancer Drug Screen. Data for tumor model L1210 Leukemia (intraperitoneal) in CD2F1 (CDF1) mice
- condition.details: endpoint: mean survival time; dose: 25.0 mg/kg/injection; schedule: Q01DX009 (ip); vehicle: water; higher = longer survival
Toxic doses and inconclusive results are not listed.
Answer each item with its documented T/C.

Entry under test: O=C1NC(CN2CCC(O)CC2)C(=O)NC1CN1CCC(O)CC1 (centres undefined) . Its T/C was 100 % of control

Entry under test: COc1cccc(C(=O)c2ccncc2)c1OC . Its T/C was 91 % of control

Entry under test: [Br][Pt].[NH-]CC[N-]CC[NH-] . Its T/C was 93 % of control

Entry under test: Cc1cc(NCCCCCCNc2cc(C)nc3ccc(N)cc23)c2cc(N)ccc2n1 . Its T/C was 109 % of control

Entry under test: Cc1ccc(S(=O)(=O)NN=C(c2ccccc2)c2ccccc2)cc1 . Its T/C was 101 % of control

Entry under test: OCC(O)COCC#Cc1ccccc1 (centres undefined) . Its T/C was 97 % of control

Entry under test: NC(=O)Oc1cccc(OC(N)=O)c1 . Its T/C was 95 % of control

Entry under test: CCOC(=O)CC(Cc1cc(OC)ccc1OC)(C(C)=O)C(C)=O . Its T/C was 110 % of control

Entry under test: O=C(O)C(=O)O.O=C(O)C(=O)O.OO.OO.[Nb] . Its T/C was 98 % of control
